- study-system: Mitogen-activated protein kinase kinase kinase 2 (Homo sapiens)
- measurement-notes: modulators of MEK5 binding to wildtype MEKK2, primary screen, biochemical, multiplex bead flow cytometry, Alexa488-MEK5 (AID 1531)
- applied-conditions: Alexa488-MEK5 binding to MEKK2 WT, at 10 µM, actives lie on both sides
Screen size: about 290,000 compounds; about 3,300 (1.1%) were called active. Cut-off read from the data, not from the text of the source: active = binding response below about 67% or above about 130%; inconclusive = no clear call, values can overlap the other calls; inactive = in between. Only a selection was taken, and actives are over-represented in it overall.
Outcome codes: 1 = active, 0 = inactive

molecule | classification
COc1ccc(-c2[nH]ncc2CN(C)Cc2c(C)n[nH]c2C)c(OC)c1 | 1
Cn1cc(CCC(=O)NC2CC2)c2ccccc21 | 0
COc1ccc(-c2[nH]ncc2CN(C)Cc2cc(C)[nH]n2)c(F)c1 | 0
Oc1ccc(-n2nnnc2SCc2c(F)cccc2Cl)cc1 | 0
COC(=O)c1ccc(Nc2ncnc3sccc23)cc1 | 0
COc1cc(NC(=O)C2=CC(c3ccc(C)cc3)=NS(=O)(=O)N2C)cc(OC)c1OC | 0
COC(=O)CN1C(=O)C(C)(C)Oc2ccc(C(=O)Nc3cccc(OC)c3)cc21 | 0
COc1ccc(-c2[nH]ncc2CN(C)Cc2cccnc2)c(F)c1 | 0
CCCCCCCCCCOC(=O)Cn1c(COc2cccc(OC)c2)[n+](C)c2ccccc21 | 1
COc1cccc(OCCCN2CCCCCC2)c1 | 0
CCCCCCCCCCOC(=O)Cn1c(COc2ccc(C)cc2)[n+](C)c2ccccc21 | 1
